Tested on: M14
Test: NCI tumour cell line growth inhibition, 48 h
The source made the active and inactive calls. Rule as the data show it: active = GI50 up to about 1.1 µM and inactive = higher.
The entries below come with measured GI50 values attached.

In the examples that follow, each entry is paired with its recorded GI50.
| compound | target under test | GI50 |
| --- | --- | --- |
| Cc1cc(NC[C@H](O)[C@H](O)[C@H](O)CO)c(Sc2cc(=O)[nH]c(=O)[nH]2)cc1C | M14 | > 62.5 µM (inactive) |
| C/C=C1/CN2CCC34C(=C(C(=O)OC)C1CC23)Nc1ccc(O)cc14 (stereo unspecified) | M14 | > 100 µM (inactive) |
| C[C@@]12C[C@@H](c3ccccc3O1)N1Cc3ccccc3CSC1=N2 | M14 | 90.4 µM (inactive) |
| COc1ccc(C(=O)C(c2ccc(OC)cc2)C2(O)C(=O)Nc3c2ccc(Cl)c3C)cc1 (stereo unspecified) | M14 | > 100 µM (inactive) |
| S=C1CC(c2ccccc2)Sc2cc(Cl)ccc2N1 (stereo unspecified) | M14 | 3.12 µM (inactive) |
| CCCCCCCCCCCCOP(=O)(O)OP(=O)(O)OCC1OC(n2ccc(N)nc2=O)CC1O (stereo unspecified) | M14 | > 100 µM (inactive) |
| CC(NC(=O)c1c(O)[nH]c(=S)[nH]c1=O)c1ccc([N+](=O)[O-])cc1 (stereo unspecified) | M14 | > 100 µM (inactive) |
| NC1C2C=CC(C2)C1C(=O)O (stereo unspecified) | M14 | > 100 µM (inactive) |

Ask: Find the recorded GI50 belonging to `O=[N+]([O-])c1cc(Cl)ccc1S(=O)(=O)c1ccccc1` and report it.
Reply: > 100 µM (inactive)

Ask: How about this compound: O=C(Nc1ccc([N+](=O)[O-])cc1[N+](=O)[O-])C(=O)C(C(=O)c1ccc2ccccc2c1)C1OC(=O)c2ccccc21 (stereo unspecified)
Reply: 15.9 µM (inactive)

Ask: How about this compound: `CCOC(=O)/C(=C/Nc1c(C)n(C)n(-c2ccccc2)c1=O)C(C)=O`
Reply: > 100 µM (inactive)

Ask: How about this compound: `O=C(CCc1n[nH]c(=S)o1)Nc1cc(Cl)ccc1Cl`
Reply: > 100 µM (inactive)

Ask: How about this compound: COC(=O)C(C)(Cc1ccc2c(c1)nnn2C(C)=O)NC(C)=O (stereo unspecified)
Reply: > 100 µM (inactive)

Ask: How about this compound: CC(=O)C1C(=O)C(=O)N(c2ccc(Br)cc2)C1=O (stereo unspecified)
Reply: > 100 µM (inactive)

Ask: How about this compound: OC1CSc2nc3ccccc3n2C1 (stereo unspecified)
Reply: > 100 µM (inactive)

Ask: How about this compound: `COc1ccc(Oc2nc3c(N)cc(C(F)(F)F)cc3nc2-c2ccccc2)cc1`
Reply: 13.3 µM (inactive)

* * *

System: OVCAR-4
Assay: NCI tumour cell line growth inhibition, 48 h
Calls of active or inactive are those of the source. Cut-off read from the data, not from the text of the source: active = GI50 up to about 1.1 µM and inactive = higher.
The entries below come with measured GI50 values attached.

In the examples that follow, each entry is paired with its recorded GI50.
| compound | target under test | result |
| --- | --- | --- |
| Cc1ccc2c(c1)C(=O)c1ccc(C)nc1C2=O | OVCAR-4 | 27.7 µM (inactive) |
| O=C(c1ccc(Cl)cc1)N1N=C(c2ccc(Cl)cc2)CC1(O)c1cc(F)c(Cl)cc1Cl (stereo not drawn) | OVCAR-4 | 12.8 µM (inactive) |

Lab note: next compound to report on.
Ask: Find the recorded GI50 belonging to O=C1C=CC2(O[C@@H](Cc3ccccc3)[C@H](Cc3ccccc3)O2)C(SC(=O)c2ccccc2)C1 (stereo partly drawn) and report it.
Reply: 1.47 µM (inactive)
